This collection of values is drawn from ChEMBL document CHEMBL1201862.

- system: UniProtKB Q6QLK5
- Sequence (Q6QLK5 whole entry, the tested form may be a part): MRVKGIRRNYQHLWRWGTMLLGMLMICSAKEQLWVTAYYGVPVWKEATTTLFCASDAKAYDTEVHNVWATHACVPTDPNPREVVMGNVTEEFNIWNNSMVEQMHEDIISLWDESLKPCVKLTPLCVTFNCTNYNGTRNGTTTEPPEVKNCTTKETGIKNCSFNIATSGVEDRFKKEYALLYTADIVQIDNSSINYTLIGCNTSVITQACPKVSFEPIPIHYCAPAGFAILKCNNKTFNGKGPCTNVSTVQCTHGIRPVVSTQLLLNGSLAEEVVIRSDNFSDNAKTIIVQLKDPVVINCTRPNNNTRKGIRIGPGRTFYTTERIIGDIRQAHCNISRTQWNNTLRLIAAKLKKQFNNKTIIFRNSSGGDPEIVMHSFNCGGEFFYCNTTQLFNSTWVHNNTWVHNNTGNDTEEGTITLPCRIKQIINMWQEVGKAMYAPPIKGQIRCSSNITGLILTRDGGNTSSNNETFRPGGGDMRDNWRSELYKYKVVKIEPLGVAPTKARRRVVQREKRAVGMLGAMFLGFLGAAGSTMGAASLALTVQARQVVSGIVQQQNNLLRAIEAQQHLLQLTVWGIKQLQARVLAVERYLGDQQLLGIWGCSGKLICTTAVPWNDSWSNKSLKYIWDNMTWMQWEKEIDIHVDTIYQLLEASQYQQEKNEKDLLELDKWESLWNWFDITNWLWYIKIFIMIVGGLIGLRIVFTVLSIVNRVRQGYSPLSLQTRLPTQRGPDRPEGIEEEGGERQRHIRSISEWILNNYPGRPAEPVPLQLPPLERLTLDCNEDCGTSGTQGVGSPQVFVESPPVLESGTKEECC
- experimentDescription: inhibitors of HIV fusion peptide binding, primary screen, biochemical, uHTS, fluorescence dequenching (AID 1986)
Active and inactive are the calls of the source. No stated cut-off is given here; in the data, actives have a measured IC50 and inactives only a lower limit.
Listed molecules paired with reported IC50
measuredAttribute: IC50

{"molecule": "O=C(O)CN1C(=O)/C(=C\\c2cc(Br)ccc2OCc2ccccc2Cl)SC1=S", "measuredAttribute": "IC50", "result": "14.3 µM (active)"}
{"molecule": "CCCOc1cccc(C2C(C(=O)c3cc4ccccc4o3)=C(O)C(=O)N2c2cc(C)on2)c1 (centres undefined)", "measuredAttribute": "IC50", "result": "16.9 µM (active)"}
{"molecule": "O=C(O)CN1C(=O)/C(=C\\c2cc(Br)ccc2OCc2ccc(F)cc2)SC1=S", "measuredAttribute": "IC50", "result": "10.7 µM (active)"}
{"molecule": "O=C(CCN1C(=O)/C(=C/c2ccco2)SC1=S)Nc1ccc(C(=O)O)c(O)c1", "measuredAttribute": "IC50", "result": "14.7 µM (active)"}
